Data provenance is a melting point compilation (Tetko et al.; mined from patent text by program, amines drawn as free bases though some values may be those of a salt).

Parameter: melting point

# annotated cases, reported melting point shown
1. Cc1cc(N2CCCC(O)C2)c(S(C)(=O)=O)cc1C(=O)N=C(N)N (stereo not given)	194 to 196 °C
2. O=c1cc2c(n[nH]1)CCc1cc(O)ccc1-2	> 300 °C
3. CC(=O)Nc1ccc(SC2SCC(O)C(O)C2O)cc1 (stereo not given)	226 to 233 °C
4. CC(=O)Nc1c(C(=O)C(C)(C)C)[nH]c2cc(Cl)ccc12	190 to 193 °C
5. C=CCN(CC=C)c1nc(NC(=O)Cc2ccccc2)n2oc(=O)nc2n1	165 to 167 °C
6. O=C(c1ccc(Cl)cc1)c1nccc2ccccc12	100 to 101 °C
7. COc1cc(Nc2nccc(NC3CCN(Cc4ccccc4)CC3)n2)cc(OC)c1OC	136 °C
8. COC1=C(OC)C(=O)C2=C(CCC(CCOc3ccc(CO)cc3)CC2)C1=O	57 to 59 °C

Read the next record carefully.
Assign melting point to the following record: O=C(O)C1CCc2c(c3cccc(Br)c3n2C(=O)c2ccccc2)C1 (stereo not given)
196 to 198 °C
